- Test Protocol: probe aLefty2 binding to arrayed compounds – biochemical, biotinylated probe, 635/667 nm fluorescence, primary screen (AID 1094);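 also: score merges spot fluorescence near 667 nm with spot signal-to-noise ratio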
- Condition Info: small-molecule microarray, higher = more signal
In this scheme, each record receives a class according to its composite z-score; the ranges are Low: < -0.002; Medium: ≥ -0.002 and < 0.5; High: ≥ 0.5

{"Compound": "COC(=O)[C@@]1(Cc2ccccc2)[C@H]2c3cc(C(=O)N(C)C)n(Cc4cc(F)c(F)c(F)c4)c3C[C@H]2CN1C(=O)c1ccccc1", "Answer Label": "Medium"}
{"Compound": "CC(C)N1C(=O)c2ccccc2[C@](C)(C(=O)NC2CC2)[C@@H]1c1ccc(CO)cc1", "Answer Label": "Low"}
{"Compound": "COCCCNC(=O)[C@]1(Cc2ccccc2N=[N+]=[N-])N=C(c2ccc(OCCCO)cc2)O[C@@H]1c1ccccc1CN=[N+]=[N-]", "Answer Label": "Medium"}
{"Compound": "C[C@]1(C(=O)NCC(F)(F)F)c2ccccc2C(=O)N(Cc2cc(F)cc(C(F)(F)F)c2)[C@H]1c1ccc(CO)cc1", "Answer Label": "Medium"}
{"Compound": "CN1C(=O)C2C=CC(C(O)c3ccc(Br)cc3)N(Nc3ccccc3)C2C1=O (stereo not given)", "Answer Label": "Medium"}
{"Compound": "C=C(CCCC)C(=O)CC[C@@H](OC(=O)c1ccccc1-c1ccccc1C(=O)O)c1ccc(CO)o1", "Answer Label": "Medium"}
{"Compound": "COC(=O)[C@@]1(Cc2ccc(OC)cc2)[C@H]2c3cc(C(=O)N4CCCC4)n(CCc4ccccn4)c3C[C@H]2CN1C(=O)c1ccccc1", "Answer Label": "Medium"}
{"Compound": "O=C(N1CCCCC1)[C@]1(CCS(=O)(=O)c2ccccc2)N=C(c2ccc(OCCCO)cc2)O[C@@H]1c1ccccc1", "Answer Label": "High"}
{"Compound": "O=C1OCC=C[C@H]2OC34C=CCN(Cc5ccccc5)C(=O)[C@H]3N(CCCO)C(=O)[C@@H]4[C@@H]12 (stereo not given in full)", "Answer Label": "High"}
{"Compound": "C=CCNC(=O)[C@@H]1[C@H]2C(=O)O[C@H](c3ccccc3)[C@H](c3ccccc3)N2[C@H](c2ccccc2OCCO)[C@@]12C(=O)N(C(=O)OCCOC)c1ccc(C#CCC(C(=O)OC)C(=O)OC)cc12", "Answer Label": "High"}
{"Compound": "O=C1O[C@H](c2ccccc2)[C@H](c2ccccc2)N2[C@H]1[C@@H](C(=O)NC[C@H](O)c1ccccc1)[C@]1(C(=O)Nc3ccc(C#CC4=CCCCC4)cc31)[C@H]2c1ccc(O)cc1", "Answer Label": "Low"}
{"Compound": "CC(C)[C@H]1COC(=O)N1C(=O)[C@H]1[C@@H](c2ccccc2)N(c2ccccc2)O[C@@H]1C", "Answer Label": "Low"}
{"Compound": "CCCCN1CC=CC23O[C@@H]4/C=C\\CCCOC(=O)C4[C@H]2C(=O)N(C(C)CO)[C@@H]3C1=O (stereo not given in full)", "Answer Label": "Low"}
{"Compound": "O=c1cccc(-c2ccc3ccccc3c2)o1", "Answer Label": "Medium"}
{"Compound": "CC1CC/C=C\\[C@H]2OC34C=CCN(Cn5nnc6ccccc65)C(=O)[C@H]3N(CCCO)C(=O)[C@@H]4C2C(=O)O1 (stereo not given in full)", "Answer Label": "Low"}

====

- Test Protocol: COS7 lysate on small-molecule microarray, probe aHis, 635 nm (AID 1123);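 also: z-score combines 667nm fluorescence intensity with signal-to-noise per printed compound spot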
- Condition Info: COS7 cell lysate, fluorescence, higher = more signal
Everything with composite z-score lower than 2 is FALSE; everything else, including exactly 2, is TRUE.

{"Compound": "CC(c1ccccc1)C(O)C1C=CC2C(=O)N(c3ccccc3)C(=O)C2N1Nc1ccccc1F (stereo unspecified)", "Answer Label": "TRUE"}
{"Compound": "O=C(NCc1ccccc1)[C@@H]1c2ccccc2C(=O)N(Cc2cc(F)cc(C(F)(F)F)c2)[C@H]1c1ccc(CO)cc1", "Answer Label": "FALSE"}
{"Compound": "CC(C)(C)OC(=O)CC[C@@]1(C(=O)N2CCOCC2)N=C(c2ccc(OCCCO)cc2)O[C@@H]1c1ccccc1N=[N+]=[N-]", "Answer Label": "TRUE"}
{"Compound": "COCCOC(=O)N1C(=O)[C@@]2(c3cc(C#CC4=CCCCC4)ccc31)[C@H](C(=O)N1CCN(c3ncccn3)CC1)[C@H]1C(=O)O[C@H](c3ccccc3)[C@H](c3ccccc3)N1[C@@H]2c1ccc(OCCO)cc1", "Answer Label": "FALSE"}
{"Compound": "O=C1O[C@@H](c2ccccc2)[C@@H](c2ccccc2)N2[C@@H](c3ccc(O)cc3)[C@]3(C(=O)Nc4ccc(C#CCCO)cc43)[C@@H](C(=O)N3CCCCCCC3)[C@H]12", "Answer Label": "TRUE"}

====

This section presents molecules with their documented composite z-score values.
- Target System: Streptavidin (Streptomyces avidinii) (UniProt P22629)
- Sequence (P22629 whole entry, looked up): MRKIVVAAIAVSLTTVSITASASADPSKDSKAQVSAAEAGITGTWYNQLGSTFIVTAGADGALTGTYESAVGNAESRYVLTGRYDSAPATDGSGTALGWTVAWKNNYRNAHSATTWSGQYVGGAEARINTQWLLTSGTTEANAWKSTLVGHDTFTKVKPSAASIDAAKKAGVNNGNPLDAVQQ
- Test Protocol: compounds binding control protein streptavidin – biophysical, small-molecule microarray, 635/667 nm fluorescence, artefact control for SMM compound annotation, primary screen (AID 1147);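 also: signal reflects streptavidin binding to arrayed compounds as a control protein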
- Condition Info: higher = more signal
Readout Label: composite z-score

{"Molecule": "C=C(CCCC)/C(=C/C[C@@H](OC(=O)c1ccncc1)c1ccc(CO)o1)c1cc(C(=O)OC)ccc1OC", "Reading": 0.707}
{"Molecule": "COC(=O)[C@@]1(Cc2ccc(OC)cc2)[C@H]2c3cc(C(=O)N(C)C)n(Cc4ccc(OC)c(OC)c4)c3C[C@H]2CN1C(=O)c1ccccc1", "Reading": 1.67}
{"Molecule": "CCCNC(=O)[C@@]1(C)c2ccccc2C(=O)N(Cc2ccc(OC(F)(F)F)cc2)[C@H]1c1ccc(CO)cc1", "Reading": -0.456}
{"Molecule": "O=C1OCCC=C[C@H]2OC34C=CCN(CCN5CCOCC5)C(=O)[C@H]3N(CCO)C(=O)[C@@H]4C12 (some centres not stated)", "Reading": -0.983}
{"Molecule": "O=C1O[C@H](c2ccccc2)[C@H](c2ccccc2)N2[C@H]1[C@@H](C(=O)Nc1nc3ccccc3s1)[C@]1(C(=O)Nc3ccc(C#CC4=CCCCC4)cc31)[C@H]2c1ccc(OCCO)cc1", "Reading": 1.73}
{"Molecule": "COc1ccc([Si](C)(C)[C@H]2[C@H](CCO)O[C@@]3(C(=O)N(Cc4cccc(N5C(=O)c6cccc7cccc5c67)c4)c4ccccc43)[C@@H]2C)cc1", "Reading": 0.343}
{"Molecule": "C/C=C/[C@H](CCn1cc([C@H](O)c2ccccc2)nn1)[Si](C)(C)c1ccc(OC)cc1", "Reading": -0.832}

====

- Test Protocol: growth effects on S. cerevisiae YJM789 – YJM789 clinical isolate, OD600, 24 h, basal, primary screen (AID 1089);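 also: growth of clinical yeast isolate S. cerevisiae YJM 789 seeded 1000 cells per well; test concentration not given here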
- Condition Info: higher = more signal, called active from +8 up or from −8 down
Everything with z-score lower than 0.3 is not met; everything else, including exactly 0.3, is met.

{"Compound": "C=CC[C@@]1(C(=O)NCc2ccccc2)N=C(c2ccc(OCCCO)cc2)O[C@@H]1c1ccccc1CN=[N+]=[N-]", "Answer Label": "met"}
{"Compound": "C=CCNC(=O)[C@H]1[C@@H]2C(=O)O[C@@H](c3ccccc3)[C@@H](c3ccccc3)N2[C@@H](c2ccc(OCCO)cc2)[C@]12C(=O)N(C(=O)OCCOC)c1ccc(C#CC3(O)CCCCCC3)cc12", "Answer Label": "met"}
{"Compound": "CCCNC(=O)[C@@]1(C)c2ccccc2C(=O)N(C(C)C)[C@H]1c1ccc(CO)cc1", "Answer Label": "not met"}
{"Compound": "CCCC[C@@H]1C[C@H]1[C@@H](NC(=O)c1ccccc1)c1ccc(-c2ccccc2)cc1", "Answer Label": "not met"}
{"Compound": "C=C[C@H](OC)[C@@H](OC(=O)Nc1ccc(SC)cc1)c1ccc(OCCO)cc1", "Answer Label": "met"}
{"Compound": "COc1ccc([Si](C)(C)[C@H]2[C@H](CC(=O)N3CCC[C@H]3CO)O[C@@]3(C(=O)N(c4ccccc4)c4ccccc43)[C@@H]2C)cc1", "Answer Label": "not met"}
{"Compound": "CCOC(=O)C1=C[C@@H](C(C)(C)C)N(S(=O)(=O)c2ccc(C)cc2)[C@H]1c1ccc(Cl)c(Cl)c1", "Answer Label": "met"}
{"Compound": "C=CCC(OC(C)=O)[C@@H]1[C@@H](N(Cc2cc3ccccc3o2)C(=O)c2cccc3ccccc23)c2cc(OCCCO)ccc2N1C(=O)Cc1ccc2ccccc2c1 (stereo not given in full)", "Answer Label": "not met"}
{"Compound": "CCOC(=O)C1=CC[C@@H](c2ccccc2)N(S(=O)(=O)c2ccc(C)cc2)[C@H]1c1ccc(C#N)cc1", "Answer Label": "not met"}
{"Compound": "CC(C)N1C(=O)c2ccccc2[C@](C)(C(=O)NCCCN(C)C)[C@@H]1c1ccc(CO)cc1", "Answer Label": "not met"}
{"Compound": "CCOC(=O)C1=CC[C@@H](c2cccc(Cl)c2)N(S(=O)(=O)c2ccc(C)cc2)[C@H]1c1ccc(C#N)cc1", "Answer Label": "met"}
{"Compound": "COC(=O)c1nc2oc1CC[C@@H](CO)NC(=O)N(C)Cc1cn(nn1)C[C@H](Cc1ccccc1)NC2=O", "Answer Label": "met"}
{"Compound": "COc1ccc(C#Cc2ccc3c(c2)[C@]2(C(=O)N3)[C@H](C(=O)N3CCc4cc(OC)c(OC)cc4C3)[C@H]3C(=O)O[C@H](c4ccccc4)[C@H](c4ccccc4)N3[C@@H]2c2ccc(OCCO)cc2)cc1", "Answer Label": "met"}
{"Compound": "CN(C)CCCN1C(=O)[C@@]2(c3ccc([N+](=O)[O-])cc3)CC(=O)N(C3CCCCC3)[C@@H]2c2ccc(CO)cc21", "Answer Label": "not met"}
